Molecular target: T1, Human TREM2 extracellular domain (ECD), residues 19-131, C-terminally biotinylated, deglycosylated (human, UniProt Q9NZC2 19-131, C-terminally biotinylated; deglycosylated)
T1 construct: range 19-131; loaded on Superstreptavidin biosensors; also called triggering receptor expressed on myeloid cells 2; Human BLI (deglycosylated)
T1 sequence (looked up): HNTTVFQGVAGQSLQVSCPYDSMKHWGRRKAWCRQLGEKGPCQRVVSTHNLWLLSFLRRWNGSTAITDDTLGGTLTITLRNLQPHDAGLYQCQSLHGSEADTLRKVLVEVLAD
Test: BLI steady state, deglycosylated human TREM2 ECD on sensor
*1 amine or outer side, *2 acyl side, *3 side chain or, on linkers, in order; H or OH if unused. Bridges are numbered along the chain shown (N, C = ends). Where no end group is shown, it is not given here. TATA = O=C(CC[*:1])N1CN(C(=O)CC[*:2])CN(C(=O)CC[*:3])C1
measured.quantity: Kd (nM)
Respond numerically; units are nM and should not be typed.

Please review the following examples before continuing.
- binder: "CSEYCFXPFYHC (N-terminal acetyl (Ac); CiSEYCiiF[5FTrp]PFYHCiii; Ci, Cii, Ciii on TATA scaffold) [BCY20058]"
  Kd / nM: 1430
- binder: "CSEYCFWPXYHC (N-terminal acetyl (Ac); CiSEYCiiFWP[2MePhe]YHCiii; Ci, Cii, Ciii on TATA scaffold) [BCY20071]"
  Kd / nM: 910
- binder: "CSEYCFWPFXHC (N-terminal acetyl (Ac); CiSEYCiiFWPF[K(PYA)]HCiii; Ci, Cii, Ciii on TATA scaffold) [BCY20102]"
  Kd / nM: 1460
- binder: "CSEYCFWPFXHC (N-terminal acetyl (Ac); CiSEYCiiFWPF[1Nal]HCiii; Ci, Cii, Ciii on TATA scaffold) [BCY20081]"
  Kd / nM: 1060

Let us examine a further case.
// query Can you share its Kd? I mean this binder: CSEYCFWPFYHC-NH2 (linker 1-5-12 via TATA) [BCY18219]
// result 700
